- Protocol Text: Cytotoxicity against human MT4 cells assessed as reduction in cell viability after 4 days by MTT assay
- Assay type: cell-based
CC50 at 96 h: recorded values

Before answering, review these 6 worked examples.
{"Smiles Repr": "CCOC(=O)c1cnc(N2CCN(Cc3ccc([N+](=O)[O-])cc3)CC2)nc1Oc1c(C)cc(-c2ccc(C#N)cc2)cc1C", "Measured Attribute": "CC50 at 96 h", "Reported Result": "> 125 µM"}
{"Smiles Repr": "CCOC(=O)c1cnc(N2CCN(Cc3cccc(C(N)=O)c3)CC2)nc1Oc1c(C)cc(-c2ccc(C#N)cc2)cc1C", "Measured Attribute": "CC50 at 96 h", "Reported Result": "14.8 µM"}
{"Smiles Repr": "CCOC(=O)c1cnc(N2CCN(Cc3ccccc3C#N)CC2)nc1Oc1c(C)cc(-c2ccc(C#N)cc2)cc1C", "Measured Attribute": "CC50 at 96 h", "Reported Result": "> 125 µM"}
{"Smiles Repr": "CCOC(=O)c1cnc(N2CCN(Cc3ccccc3C(=O)OC)CC2)nc1Oc1c(C)cc(-c2ccc(C#N)cc2)cc1C", "Measured Attribute": "CC50 at 96 h", "Reported Result": "> 125 µM"}
{"Smiles Repr": "Cc1cc(C#N)cc(C)c1Oc1nc(Nc2ccc(C#N)cc2)nc(N)c1Br", "Measured Attribute": "CC50 at 96 h", "Reported Result": "> 2 µM"}
{"Smiles Repr": "CCOC(=O)c1cnc(N2CCN(Cc3ccc(C(=O)OC)cc3)CC2)nc1Oc1c(C)cc(-c2ccc(C#N)cc2)cc1C", "Measured Attribute": "CC50 at 96 h", "Reported Result": "> 125 µM"}

Form field: reported CC50 at 96 h of CCOC(=O)c1cnc(N2CCN(Cc3cccc(C#N)c3)CC2)nc1Oc1c(C)cc(-c2ccc(C#N)cc2)cc1C
> 125 µM

And then CCOC(=O)c1cnc(N2CCN(Cc3ccc(C(F)(F)F)cc3)CC2)nc1Oc1c(C)cc(-c2ccc(C#N)cc2)cc1C , what is it?
> 125 µM

Input CCOC(=O)c1cnc(N2CCN(Cc3cccc(OC)c3)CC2)nc1Oc1c(C)cc(-c2ccc(C#N)cc2)cc1C
> 125 µM

Now consider CCOC(=O)c1ccc(CN2CCN(c3ncc(C(=O)OCC)c(Oc4c(C)cc(-c5ccc(C#N)cc5)cc4C)n3)CC2)cc1 .
> 125 µM

====

- System: Human immunodeficiency virus type 1 reverse transcriptase (Human immunodeficiency virus 1)
- Protocol Text: Inhibition of recombinant wild-type HIV1 GST-fused reverse transcriptase p66/p51 RNA-dependent DNA polymerase activity expressed in Escherichia coli assessed as reduction in biotin-dUTP incorporation using poly(rA)/oligo(dT)16 as template/primer after 40 mins by PicoGreen dye based spectrofluorometric analysis
Measured Attribute: IC50

Some entries whose results are on file:
{"Smiles Repr": "CCOC(=O)c1cnc(N2CCN(Cc3ccc(F)cc3)CC2)nc1Oc1c(C)cc(-c2ccc(C#N)cc2)cc1C", "Reported Result": "> 120 µM"}
{"Smiles Repr": "CCOC(=O)c1cnc(N2CCN(Cc3cccc(C(N)=O)c3)CC2)nc1Oc1c(C)cc(-c2ccc(C#N)cc2)cc1C", "Reported Result": "≥ 93.1 µM"}

Now, please, on to the next molecule.
Which IC50 is listed for CCOC(=O)c1cnc(N2CCN(Cc3ccc(C(N)=O)cc3)CC2)nc1Oc1c(C)cc(-c2ccc(C#N)cc2)cc1C ?
≥ 113 µM
